The reported numbers originate from patent US20110092547A1.

Molecular target: human DGAT1 (Homo sapiens)
Construct: membrane fraction
Sequence (O75907 whole entry): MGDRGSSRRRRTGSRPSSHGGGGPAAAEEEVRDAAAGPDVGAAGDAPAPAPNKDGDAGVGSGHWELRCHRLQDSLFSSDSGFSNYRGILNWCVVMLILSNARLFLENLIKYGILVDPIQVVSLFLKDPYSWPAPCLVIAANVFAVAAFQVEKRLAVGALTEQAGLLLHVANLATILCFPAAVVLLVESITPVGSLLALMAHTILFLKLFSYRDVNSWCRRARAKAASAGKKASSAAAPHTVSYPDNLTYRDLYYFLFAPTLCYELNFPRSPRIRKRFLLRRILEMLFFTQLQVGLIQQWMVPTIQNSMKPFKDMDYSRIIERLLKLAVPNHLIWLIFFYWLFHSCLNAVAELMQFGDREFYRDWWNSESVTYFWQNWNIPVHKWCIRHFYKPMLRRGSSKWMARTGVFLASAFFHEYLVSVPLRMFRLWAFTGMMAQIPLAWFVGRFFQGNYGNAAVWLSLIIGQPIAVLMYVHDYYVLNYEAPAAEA
Test: Human enzyme assay, further developed assay (14C oleoyl CoA, 96 well plate)
Conditions: human DGAT1 expressed in insect cell (sf9) membranes
Method: The in vitro assay to identify DGAT1 inhibitors uses human DGAT1 expressed in insect cell membranes as the enzyme source (Proc. Natl. Acad. Sci. 1998, 95, 13018-13023). […] In a further developed assay, DGAT1 activity was assayed by a modification of the method described by Coleman (Methods in Enzymology 1992, 209, 98-102). […] DGAT1 activity was quantified by counting aliquots of the upper heptane layer by liquid scintillography.
Doc: threshold 10 nM (exclusive). Items with IC50 beneath it return T; others return F.

COMPOUND | QUALITATIVE_LABEL
O=C(Nc1ccc(OC2CCC(C(=O)O)CC2)nc1)c1nnc(Nc2ccc(OC(F)F)cc2)o1 (centres unmarked) | F
COc1cc(Cl)ccc1Nc1nnc(C(=O)Nc2ccc(O[C@H]3CC[C@@H](C(=O)O)CC3)nc2)o1 | F
Cc1cc(NC(=O)c2nnc(Nc3cccc(Cl)c3)o2)cnc1O[C@H]1CC[C@@H](C(=O)O)CC1 | F
O=C(O)c1ccc(Oc2ccc(NC(=O)c3nnc(Nc4ccc(F)c(F)c4)o3)cn2)cc1 | T
O=C(Nc1ccc(O[C@H]2CC[C@@H](C(=O)O)CC2)nc1F)c1nnc(Nc2ccc(F)c(Cl)c2)o1 | T
O=C(Nc1cnc(O[C@H]2CC[C@@H](C(=O)O)CC2)cc1F)c1nnc(Nc2ccc(F)c(F)c2)o1 | T
C[C@]1(C(=O)O)CC[C@H](Oc2ccc(NC(=O)c3nnc(Nc4ccc(F)c(F)c4)o3)cn2)CC1 | F
O=C(Nc1cnc(O[C@H]2CC[C@@H](C(=O)O)CC2)c(Cl)c1)c1nnc(Nc2ccc(F)c(Cl)c2)o1 | F
O=C(Nc1ccc(O[C@H]2CC[C@H](C(=O)O)CC2)nc1)c1nnc(Nc2ccc(Cl)cc2Cl)o1 | F
O=C(Nc1cnc(O[C@H]2CC[C@@H](C(=O)O)CC2)c(F)c1)c1nnc(Nc2ccc(F)c(F)c2)o1 | F
O=C(Nc1ccc(O[C@H]2CC[C@@H](C(=O)O)CC2)nc1)c1nnc(Nc2ccc(Cl)cc2Cl)o1 | T
Cc1cc(OC2CCC(C(=O)O)CC2)ncc1NC(=O)c1nnc(Nc2ccc(F)c(Cl)c2)o1 (centres unmarked) | T
Cc1cc(NC(=O)c2nnc(Nc3ccc(F)c(F)c3)o2)cnc1O[C@H]1CC[C@@H](C(=O)O)CC1 | F
O=C(O)C[C@H]1CC[C@@H](Oc2ccc(NC(=O)c3nnc(Nc4ccc(Cl)cc4Cl)o3)cn2)CC1 | T
O=C(Nc1ccc(O[C@H]2CC[C@@H](C(=O)O)CC2)nc1)c1nnc(Nc2ccc(OC(F)(F)F)cc2)o1 | T
O=C(Nc1ccc(O[C@H]2CC[C@H](C(=O)O)CC2)nc1)c1nnc(Nc2ccc(F)c(F)c2)o1 | F
Cc1ccc(Nc2nnc(C(=O)Nc3ccc(O[C@H]4CC[C@@H](C(=O)O)CC4)nc3)o2)cc1Cl | T
COc1nc(O[C@H]2CC[C@@H](C(=O)O)CC2)ccc1NC(=O)c1nnc(Nc2ccc(F)c(F)c2)o1 | F
CC(C)c1ccc(Nc2nnc(C(=O)Nc3ccc(O[C@H]4C[C@@H](C(=O)O)C4)nc3)o2)cc1 | F
O=C(O)C[C@H]1CC[C@@H](Oc2ccc(NC(=O)c3nnc(Nc4ccc(F)c(F)c4)o3)cn2)CC1 | T
CC(C)c1ccc(Nc2nnc(C(=O)Nc3ccc(O[C@H]4CC[C@@H](C(=O)O)CC4)nc3)o2)cc1 | F
CC1(C(=O)O)CCC(Oc2ccc(NC(=O)c3nnc(Nc4ccc(F)c(Cl)c4)o3)cn2)CC1 (mixture of isomers) | T
CC(C)c1ccc(Nc2nnc(C(=O)Nc3ccc(O[C@H]4C[C@H](C(=O)O)C4)nc3)o2)cc1 | T
CC(C)c1ccc(Nc2nnc(C(=O)Nc3ccc(O[C@H]4CC[C@H](C(=O)O)CC4)nc3)o2)cc1 | F
O=C(Nc1ccc(O[C@H]2CC[C@H](C(=O)O)CC2)nc1)c1nnc(Nc2cccc(OC(F)(F)F)c2)o1 | F
